Target: ChEH (Rattus norvegicus)
Sequence (Q9JJ46 1-230): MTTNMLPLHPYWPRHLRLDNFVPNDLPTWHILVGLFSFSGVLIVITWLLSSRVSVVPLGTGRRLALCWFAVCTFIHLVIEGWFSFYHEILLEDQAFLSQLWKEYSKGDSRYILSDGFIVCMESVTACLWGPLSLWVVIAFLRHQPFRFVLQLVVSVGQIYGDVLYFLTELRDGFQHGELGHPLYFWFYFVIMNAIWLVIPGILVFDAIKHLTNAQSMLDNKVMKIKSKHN
Experimental endpoint: pKi
Answers are plain numbers, as −log10 of the molar value.

Molecule | Experimental endpoint | Readout value
C[C@@H]1CN(CCCn2c3ccccc3c3ccccc32)C[C@H](C)N1 [Rimcazole] | pKi | 5.63
CCN(CC)CCOc1ccc(C2C[C@]3(C)C(O)CC[C@H]3[C@@H]3CCc4cc(O)ccc4[C@@H]23)cc1 (some centres unmarked) [RU 39,411] | pKi | 6.81
CC(C)CCC[C@@H](C)[C@H]1CC[C@H]2[C@@H]3C[C@@H](NCCc4c[nH]cn4)[C@@]4(O)C[C@@H](O)CC[C@]4(C)[C@H]3CC[C@]12C [DDA] | pKi | 5.90
CC(C)(c1ccccc1)c1ccc(OCCN2CCCC2)cc1 [PCPE] | pKi | 7.46

Take each entry in turn and give its pKi.
1. c1ccc(Cc2ccc(OCCN3CCCC3)cc2)cc1 [PBPE]
2. CCN(CC)CCOc1ccc(Cc2ccccc2)cc1 [Tesmilifene]

7.57
7.20

----------
Answer each item with its documented OCDO production by MCF-7 (% control).
tested on: MCF7 cells; experiment: OCDO production by MCF7 cells incubated with [14C]CE, thin-layer chromatography; assay type: cell-based, human; conditions: concentration in μM in parentheses after each molecule; control = 100

Would you please look over these solved cases?
Compound | Readout value
c1ccc(Cc2ccc(OCCN3CCCC3)cc2)cc1 | <1 % control
CN1CCN(CCCN2c3ccccc3Sc3ccc(C(F)(F)F)cc32)CC1 | <1 % control
CC/C(=C(\c1ccccc1)c1ccc(OCCN(C)C)cc1)c1ccccc1 | <1 % control

Please state, for each entry, its recorded OCDO production by MCF-7 (% control).
1. O=C(CCCN1CCC(O)(c2ccc(Cl)cc2)CC1)c1ccc(F)cc1
2. C[C@@H]1CN(CCCn2c3ccccc3c3ccccc32)C[C@H](C)N1
3. CCN(CC)CCOc1ccc(/C(=C(\Cl)c2ccccc2)c2ccccc2)cc1
4. CCN(CC)CCOc1ccc(Cc2ccccc2)cc1
5. CCCC(C(=O)OCCN(CC)CC)(c1ccccc1)c1ccccc1 [SKF-525A]
6. CCN(CC)CCO[C@H]1CC[C@@]2(C)C(=CC[C@@H]3[C@@H]2CC[C@]2(C)C(=O)CC[C@@H]32)C1 [U-18666A]

["42 % control", "12 % control", "<1 % control", "<1 % control", "<1 % control", "<1 % control"]

----------
target: ChEH (Rattus norvegicus, UniProt Q9JJ46)
So I've got a bunch of molecules here, and I need their Ki values.
Numbers only, in µM.

Example entries and their recorded answers appear below.
Molecule | Target desc | Readout value
CCN(CC)CCO[C@H]1CC[C@@]2(C)C(=CC[C@@H]3[C@@H]2CC[C@]2(C)C(=O)CC[C@@H]32)C1 [U-18666A] | ChEH (Rattus norvegicus, UniProt Q9JJ46) | 0.0903
CC/C(=C(\c1ccc(O)cc1)c1ccc(OCCN(C)C)cc1)c1ccccc1 | ChEH (Rattus norvegicus, UniProt Q9JJ46) | 0.145
CN1CCN(CCCN2c3ccccc3Sc3ccc(C(F)(F)F)cc32)CC1 | ChEH (Rattus norvegicus, UniProt Q9JJ46) | 0.135
O=C(c1ccc(OCCN2CCCCC2)cc1)c1c(-c2ccc(O)cc2)sc2cc(O)ccc12 | ChEH (Rattus norvegicus, UniProt Q9JJ46) | 0.0356
CCN(CC)CCOc1ccc(C(O)(Cc2ccc(Cl)cc2)c2ccc(C)cc2)cc1 (centres unmarked) | ChEH (Rattus norvegicus, UniProt Q9JJ46) | 0.0395
CCCC(C(=O)OCCN(CC)CC)(c1ccccc1)c1ccccc1 [SKF-525A] | ChEH (Rattus norvegicus, UniProt Q9JJ46) | 1.9
COc1ccc(/C(=C(\c2ccccc2)[N+](=O)[O-])c2ccc(OCCN3CCCC3)cc2)cc1 | ChEH (Rattus norvegicus, UniProt Q9JJ46) | 0.0177

State its Ki for this molecule: `Clc1ccccc1CNC[C@H]1CC[C@H](CNCc2ccccc2Cl)CC1`
0.649
